B1: Flag-CNK^2–549 [Drosophila] / GST-HYP [Drosophila] (parent complex)
chain 1: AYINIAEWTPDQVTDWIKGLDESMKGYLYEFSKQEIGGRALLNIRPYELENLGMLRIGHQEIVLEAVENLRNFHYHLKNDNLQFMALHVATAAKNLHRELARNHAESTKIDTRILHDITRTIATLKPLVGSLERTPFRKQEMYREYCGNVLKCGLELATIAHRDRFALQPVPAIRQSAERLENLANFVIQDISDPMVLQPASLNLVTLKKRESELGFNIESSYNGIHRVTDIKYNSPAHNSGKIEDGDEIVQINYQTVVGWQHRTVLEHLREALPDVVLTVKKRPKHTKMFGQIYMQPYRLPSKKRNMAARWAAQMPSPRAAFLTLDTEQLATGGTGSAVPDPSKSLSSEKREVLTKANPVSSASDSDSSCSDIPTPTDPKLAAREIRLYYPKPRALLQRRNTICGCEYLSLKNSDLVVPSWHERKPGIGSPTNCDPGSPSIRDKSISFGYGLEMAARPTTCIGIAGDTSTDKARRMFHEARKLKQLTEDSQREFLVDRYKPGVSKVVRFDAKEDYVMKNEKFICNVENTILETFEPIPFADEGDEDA
chain 2: MGEETINSTQNKTRTKTTRPKAVYLWTVSDVLKWYRRHCGEYTQYEQLFAQHDITGRALLRITDSSLQRMGVTDNRDREAIWREIVKQRLKTDIMEIRDMERLNIY

- Variants of: B1
- ASSAY_NAME: GST pull-down, immunoblot quantification; S2 cells; GST-HYP + RRKM (Ha-RASV12, Pyo-RAF, V5-KSR, Myc-MEK) co-expressed; anti-Flag (CNK) blot; parent: 1
QUANTITY_NAME: ratio to parent

Guide cases for ratio to parent, answers given:
variant="chain 1 D194K" test_value=0.24
variant="chain 1 S193A" test_value=0.86

1 = chain 1 V197E
2 = chain 1 Q199A
3 = chain 1 M196E
[Q] Returns the items ordered by ratio to parent, from maximum to minimum. // list labels; follow requested order
[A] 2, 3, 1
(2: 0.72, 3: 0.34, 1: 0.21)
